Hey, just so you know, these numbers are from PubChem BioAssay (NCI).

Test system: SK-OV-3 ovarian
Assay Text: NCI tumour cell line growth inhibition, 48 h
Reported TGI values for a set of molecules

1) CC1=C(C)C(=O)OC(C(C)(O)C2(O)CC3OC34C3CC(O)C56OC5C=CC(=O)C6(C)C3CCC42C)C1 (centres undefined) = 14.2 µM
2) CC(C)CC1c2[nH]c3ccccc3c2C[C@H]2C(=O)NC(Cc3c[nH]c4ccccc34)C(=O)N12 (some centres undefined) = 49 µM
3) O=C(Cn1c2ccc(Br)cc2c2nc3ccccc3nc21)NCc1ccccc1 = > 100 µM
4) CC(NCCN(C)C)C1CCC2C3CCc4cc(O)ccc4C3CCC12C (centres undefined) = 15.9 µM
5) CC(=O)C1=C(C)N(c2ccccc2)C2(O)C3=C(C(=O)c4ccccc4C3=O)C(O)=CC12Cl (centres undefined) = > 100 µM

Briefly, TGI measured for COc1cc(/C=C2\C(=O)N(c3cccc(NC(C)=O)c3)C(c3ccccc3)S2(=O)=O)cc(OC)c1OC (centres undefined) : > 100 µM

Briefly, TGI measured for COc1ccc(-c2cc(-c3ccc(C)cc3)n(C3OC(COC(C)=O)C(OC(C)=O)C(OC(C)=O)C3OC(C)=O)c(=S)c2C#N)cc1 (centres undefined) : > 100 µM

Briefly, TGI measured for COP(=O)(OC)C(N)Cc1c[nH]c2ccccc12 (centres undefined) : > 100 µM

Briefly, TGI measured for CCN(CC)Cc1cc(N=Nc2c(O)ccc3c(N=Nc4ccc(O)c(CN(CC)CC)c4)c(O)ccc23)ccc1O : 6.85 µM

Briefly, TGI measured for CC(C)(C)c1cc(C2c3cc4c(cc3OC(O)(CO)C2C(=O)O)OCO4)cc(C(C)(C)C)c1O (centres undefined) (tested in a mixture with another compound) : 45.8 µM

Briefly, TGI measured for COc1cc(/C=C/C(=O)CC(=O)/C=C/c2cc(C)c(O)c(OC)c2)cc(C)c1O : > 100 µM

Briefly, TGI measured for O=C(O)/C=C/c1c2ccc(=O)c(O)c-2oc2c(O)c(O)ccc12 : > 100 µM

Briefly, TGI measured for COC(=O)c1csc(-c2csc(CCNC(=O)OC(C)(C)C)n2)n1 : > 100 µM

Briefly, TGI measured for COc1cc(/C=C/C(=O)c2c(C)n([O-])c3ccccc3[n+]2=O)cc(OC)c1OC : 25.5 µM

Briefly, TGI measured for O=S1(=O)OCCOS(=O)(=O)C1(F)Cc1ccccc1 : > 100 µM

Briefly, TGI measured for COc1ccc([N+](=O)[O-])c2c(NCCCN(C)C)c(C)c(C)nc12 : > 100 µM

Briefly, TGI measured for COc1ccc(C2CC(c3sc(Nc4ccc(C)cc4)nc3C)=NN2)cc1 (centres undefined) : 44.1 µM

Briefly, TGI measured for O=c1[nH]c2nc3ccccc3c(=O)n2nc1Cc1ccccc1 : > 100 µM

Briefly, TGI measured for COc1ccc(-n2cc(-c3cc(OC)c(OC)c(OC)c3)nc2SCc2cccc(C#N)c2)cc1OC : > 100 µM

###

System: UACC-62 melanoma
Assay Text: NCI tumour cell line growth inhibition, 48 h; in the data active = GI50 below about 0.43 µM; inactive = the rest
// classify into active, inactive

Check out these entries, answers already filled in.
1. COc1cc(/C=C/C(=O)c2c(C)n([O-])c3ccccc3[n+]2=O)cc(OC)c1OC = inactive
2. OCc1c(-c2cccs2)oc(-c2cccs2)c1CO = inactive
3. Cc1cc(NC(=O)NCCOc2ccc(N3C(N)=NC(N)=NC3(C)C)cc2Cl)ccc1S(=O)(=O)F = inactive
4. O=C1c2c(c3c4cc(F)ccc4oc3c3[nH]c4ccccc4c23)C(=O)N1O = inactive
5. CN(C)CCNC(=O)c1ccc2c(c1)oc1cc3ccccc3c(=O)n12 = inactive
6. O=[N+]([O-])c1ccc(Sc2cccc[n+]2[O-])c2nonc12 = inactive

Input: For COc1ccc(Cn2cc3c(c2-c2ccccc2)CCc2cnoc2-3)cc1 , which call appears in the assay record?
Output: active

Input: For Nc1[nH]nc(Nc2ccccc2)c1-c1nc2ccccc2s1 , which call appears in the assay record?
Output: inactive

Input: For CC(C)(C)OC(=O)NCCCCCCCCCn1c2c(c3ccccc3c1=O)C(=O)c1ccccc1-2 , which call appears in the assay record?
Output: inactive

Input: For COc1ccc(-c2cn(C)c3c2-n2cccc2C3=O)cc1O , which call appears in the assay record?
Output: inactive

Input: For CN[C@@H](C)C(=O)N[C@H](C(=O)N1CCC[C@H]1c1nc(C(=O)c2ccc(F)cc2)cs1)C1CCCCC1 , which call appears in the assay record?
Output: inactive
